- Tgt: Glutamate NMDA receptor
- Protocol description: Ability to displace [3H]L-689560 from NMDA receptor glycine site in rat brain membranes
Reported property: IC50 (nM)

Recorded IC50, per entry:
Molecule	Test value
N[C@H](Cc1cc(I)c(OCCc2cccc(O)c2)c(I)c1)C(=O)O	350
N[C@H](Cc1cc(I)c(OCCc2ccncc2)c(I)c1)C(=O)O	460
NC(Cc1cc(I)c(OCCc2ccc(O)cc2)c(I)c1)C(=O)O (stereo unspecified)	900
N[C@H](Cc1ccc(OCCc2ccccc2)cc1)C(=O)O	100000

[a] N[C@H](Cc1cc(I)c(OCc2ccccc2)c(I)c1)C(=O)O
[b] CCOc1c(I)cc(C[C@@H](N)C(=O)O)cc1I
Dear colleague, could you let me know whether a or b has the lower recorded IC50? Thanks. I would appreciate it if you answered with the label of your choice. a
(a: 790 nM, b: 1500 nM)
